From various publications: pKi for Cyclin-dependent kinase 4 (Homo sapiens).
pKi: −log10 of the molar value.
Response key: t means pKi >= 6; f means pKi < 6.

>  <Smiles Record>
Cc1cc(Nc2nccc(-c3c(C)[nH]c(C#N)c3C)n2)ccc1F

>  <Class Label>
t

$$$$
>  <Smiles Record>
Cc1nc(C)c(-c2ccnc(Nc3ccc(O)cc3)n2)s1

>  <Class Label>
t

$$$$
>  <Smiles Record>
Cc1nc(C)c(-c2ccnc(Nc3cccc(C#N)c3)n2)s1

>  <Class Label>
t

$$$$
>  <Smiles Record>
Cc1nc(C)c(-c2ccnc(N(C)c3cccc([N+](=O)[O-])c3)n2)s1

>  <Class Label>
f

$$$$
>  <Smiles Record>
Cc1c[nH]c(C)c1-c1ccnc(Nc2cccc([N+](=O)[O-])c2)n1

>  <Class Label>
f

$$$$
>  <Smiles Record>
Cc1nc(N(C)C)sc1-c1ccnc(Nc2cccc([N+](=O)[O-])c2)n1

>  <Class Label>
f

$$$$
>  <Smiles Record>
Cc1nc(N)sc1-c1ccnc(Nc2ccc(O)cc2)n1

>  <Class Label>
t

$$$$
>  <Smiles Record>
COc1ccccc1-c1cc(Nc2ccc(F)c(NS(C)(=O)=O)c2)ncn1

>  <Class Label>
f

$$$$
>  <Smiles Record>
CCNc1nc(C)c(-c2ccnc(Nc3cc(OC)c(OC)c(OC)c3)n2)s1

>  <Class Label>
f

$$$$
>  <Smiles Record>
Cc1nc(C)c(-c2ccnc(Nc3cccc(N)c3)n2)s1

>  <Class Label>
f

$$$$
>  <Smiles Record>
Cc1nc(C)c(-c2ccnc(Nc3ccccc3C(F)(F)F)n2)s1

>  <Class Label>
f

$$$$
>  <Smiles Record>
Cc1nc(C)c(-c2ccnc(Nc3cccc(Cl)c3)n2)s1

>  <Class Label>
f

$$$$
>  <Smiles Record>
CCNc1nc(C)c(-c2ccnc(Nc3ccc(N4CCOCC4)cc3)n2)s1

>  <Class Label>
t

$$$$
>  <Smiles Record>
Cc1nc(C)c(-c2ccnc(N)n2)s1

>  <Class Label>
f

$$$$
>  <Smiles Record>
CNc1nc(C)c(-c2ccnc(Nc3cccc([N+](=O)[O-])c3)n2)s1

>  <Class Label>
f

$$$$
>  <Smiles Record>
CCNc1nc(C)c(-c2ccnc(Nc3cccc(O)c3)n2)s1

>  <Class Label>
f

$$$$
>  <Smiles Record>
CN1CC[C@@H](c2c(O)cc(O)c3c(=O)cc(-c4ccccc4)oc23)[C@@H]1CO

>  <Class Label>
t

$$$$
>  <Smiles Record>
Cc1nc(C)c(-c2ccnc(N(C)C)n2)s1

>  <Class Label>
f

$$$$
>  <Smiles Record>
Cc1nc(C)c(-c2ccnc(Nc3ccccc3Cl)n2)s1

>  <Class Label>
f

$$$$
